Where these numbers come from: patent US8815857B2

Assay Text: Assessment of solubility: HT solubility in pION buffer, UV spectrophotometry
Condition Set: pH 6.8, aqueous buffer, kinetic from dmso stock, Solubility (pH 6.8), pH 6.8
Measurement Type: solubility (µg/mL)

Compound: Cc1ccc(OCc2ccc(C(=O)N(C)CC3(CO)CC3)cc2C)c(-c2csc(N3C[C@H]4CC[C@@H](C3)[C@H]4C(=O)O)n2)c1
Measurement Type: solubility
Unit Info: µg/mL
Measured: 55
--
Compound: CCc1cc(C(=O)N2CCCCC2)ccc1COc1ccc(C)cc1-c1csc(N2C[C@H]3CC[C@@H](C2)[C@H]3C(=O)O)n1
Measurement Type: solubility
Unit Info: µg/mL
Measured: 21
--
Compound: Cc1ccc(OCc2ccc(C(=O)N3CCCCC3)cc2C)c(-c2csc(N3C[C@H]4CC[C@@H](C3)[C@@]4(C)C(=O)O)n2)c1
Measurement Type: solubility
Unit Info: µg/mL
Measured: 51
--
Compound: Cc1ccc(OCc2ccc(C(=O)N3CCCCC3)cc2C)c(-c2csc(N3C[C@H]4CC[C@@H](C3)[C@@]4(O)C(=O)O)n2)c1
Measurement Type: solubility
Unit Info: µg/mL
Measured: 0.17
--
Compound: Cc1ccc(OCc2ccc(C(=O)N3CCN(C)C(=O)C3)cc2C)c(-c2csc(N3C[C@H]4CC[C@@H](C3)[C@H]4C(=O)O)n2)c1
Measurement Type: solubility
Unit Info: µg/mL
Measured: 66
--
Compound: COCCN(C)C(=O)c1ccc(COc2ccc(C)cc2-c2csc(N3C[C@H]4CC[C@@H](C3)[C@H]4C(=O)O)n2)c(C)c1
Measurement Type: solubility
Unit Info: µg/mL
Measured: 61
--
Compound: Cc1ccc(OCc2ccc(CN3CCN(C)C(=O)C3)cc2C#N)c(-c2csc(N3C[C@H]4CC[C@@H](C3)[C@H]4C(=O)O)n2)c1
Measurement Type: solubility
Unit Info: µg/mL
Measured: 57
--
Compound: Cc1ccc(OCc2ccc(C(=O)N3CCC(F)(F)CC3)cc2C)c(-c2csc(N3C[C@H]4CC[C@@H](C3)[C@H]4C(=O)O)n2)c1
Measurement Type: solubility
Unit Info: µg/mL
Measured: 41
--
Compound: CO[C@H]1CCN(C(=O)c2ccc(COc3ccc(C)cc3-c3csc(N4C[C@H]5CC[C@@H](C4)[C@H]5C(=O)O)n3)c(C)c2)C1
Measurement Type: solubility
Unit Info: µg/mL
Measured: 62
--
Compound: CCOC1CCN(C(=O)c2ccc(COc3ccc(C)cc3-c3csc(N4C[C@H]5CC[C@@H](C4)[C@H]5C(=O)O)n3)c(C)c2)C1 (stereo partly drawn)
Measurement Type: solubility
Unit Info: µg/mL
Measured: 35
--
Compound: Cc1ccc(OCc2ccc(C(=O)N3CC[C@@H](O)C3)cc2C)c(-c2csc(N3C[C@H]4CC[C@@H](C3)[C@H]4C(=O)O)n2)c1
Measurement Type: solubility
Unit Info: µg/mL
Measured: 63
--
Compound: Cc1ccc(OCc2ccc(CN3CCS(=O)(=O)CC3)cc2C#N)c(-c2csc(N3C[C@H]4CC[C@@H](C3)[C@H]4C(=O)O)n2)c1
Measurement Type: solubility
Unit Info: µg/mL
Measured: 13

----------
Measured solubility values are reported for all entries that follow.
Assay Text: Assessment of solubility: HT solubility in pION buffer, UV spectrophotometry
Condition Set: pH 6.8, aqueous buffer, kinetic from dmso stock, Solubility (pH 6.8), pH 6.8

Test Smiles: Cc1ccc(OCc2ccc(C(=O)N3CCC(CO)CC3)cc2C)c(-c2csc(N3C[C@H]4CC[C@@H](C3)[C@H]4C(=O)O)n2)c1
solubility (µg/mL): 63
//
Test Smiles: Cc1ccc(OCc2ccc(C(=O)N3CCOCC3)cc2C)c(-c2csc(N3C[C@H]4CC[C@@H](C3)[C@H]4C(=O)O)n2)c1
solubility (µg/mL): 70
//
Test Smiles: Cc1ccc(OCc2ccc(C(=O)N3CCCC3)cc2C)c(-c2csc(N3C[C@H]4CC[C@@H](C3)[C@H]4C(=O)O)n2)c1
solubility (µg/mL): 36
//
Test Smiles: Cc1ccc(OCc2ccc(C(=O)N3CCCCC3)cc2C)c(-c2csc(N3C[C@H]4CC[C@@H](C3)[C@@]4(F)C(=O)O)n2)c1
solubility (µg/mL): 0.45
//
Test Smiles: Cc1ccc(OCc2ccc(C(=O)N3CC[C@H](N(C)C)C3)cc2C)c(-c2csc(N3C[C@H]4CC[C@@H](C3)[C@H]4C(=O)O)n2)c1
solubility (µg/mL): 63
//
Test Smiles: Cc1ccc(OCc2ccc(C(=O)N(C)Cc3ncc[nH]3)cc2C)c(-c2csc(N3C[C@H]4CC[C@@H](C3)[C@H]4C(=O)O)n2)c1
solubility (µg/mL): 24

----------
Assay Text: Assessment of solubility: HT solubility in pION buffer, UV spectrophotometry
Condition Set: pION system solution buffer, pH 4.5, pH 4.5, aqueous buffer, kinetic from dmso stock, Solubility (pH 4.5), pH 4.5 buffer, 16-19 h incubation, 1.0% DMSO

Molecule: CC(=O)N1CCN(Cc2ccc(COc3c(C)cccc3-c3csc(N4CCC(C(=O)O)CC4)n3)c(C)c2)CC1
Modifier Sign: >
solubility (µg/mL): 56
//
Molecule: Cc1ccc(OCc2ccc(C(=O)N3CCOCC3)cc2C)c(-c2csc(N3CC[C@@H](C(=O)O)[C@H]3C)n2)c1
Modifier Sign: =
solubility (µg/mL): 9.2
//
Molecule: Cc1cc(C(=O)N2CCCCC2)ccc1COc1ccc(C#N)cc1-c1csc(N2CCC(C(=O)O)C(C(F)(F)F)C2)n1 (stereo not shown)
Modifier Sign: =
solubility (µg/mL): 0.3
//
Molecule: Cc1ccc(OCc2ccc(CN3CCOCC3C)cc2C#N)c(-c2csc(N3C[C@H]4CC[C@@H](C3)[C@H]4C(=O)O)n2)c1 (stereo partly shown)
Modifier Sign: =
solubility (µg/mL): 12
//
Molecule: Cc1ccc(OCc2ccc(C(=O)N3CCCCC3)cc2C)c(-c2csc(N3C[C@H]4CC[C@@H](C3)[C@@]4(C)C(=O)O)n2)c1
Modifier Sign: <
solubility (µg/mL): 0.1
//
Molecule: Cc1cc(C(=O)N2CCCCC2)ccc1COc1ccc(Cl)cc1-c1csc(N2CC3C(C2)C3C(=O)O)n1 (stereo not shown)
Modifier Sign: =
solubility (µg/mL): 0.2
//
Molecule: CCCC1(C(=O)O)C2CCC1CN(c1nc(-c3cc(C)ccc3OCc3ccc(C(=O)N4CCCCC4)cc3C)cs1)C2 (stereo not shown)
Modifier Sign: <
solubility (µg/mL): 0.1

----------
Assay Text: Assessment of solubility: HT solubility in pION buffer, UV spectrophotometry
Condition Set: pION system solution buffer, pH 4.5, pH 4.5, aqueous buffer, kinetic from dmso stock, Solubility (pH 4.5), pH 4.5 buffer, 16-19 h incubation, 1.0% DMSO

Molecule: Cc1cc(CN2CCOCC2)ccc1COc1ccc(C#N)cc1-c1csc(N2CCC(C(=O)O)CC2)n1
Unit Info: µg/mL
Modifier Sign: =
solubility: 36
--
Molecule: Cc1ccc(OCc2ccc(C(=O)N3CCCCC3)cc2C)c(-c2csc(N3CC4(CC4C(=O)O)C3)n2)c1 (centres unmarked)
Unit Info: µg/mL
Modifier Sign: <
solubility: 0.1
--
Molecule: Cc1cc(C(=O)N2CCCCC2)ccc1COc1ccc(F)cc1-c1csc(N2CCC(C(=O)O)C(C(F)(F)F)C2)n1 (centres unmarked)
Unit Info: µg/mL
Modifier Sign: =
solubility: 0.25
--
Molecule: Cc1ccc(OCc2ccc(C(=O)N3CCC(O)CC3)cc2C)c(-c2csc(N3C[C@H]4CC[C@@H](C3)[C@H]4C(=O)O)n2)c1
Unit Info: µg/mL
Modifier Sign: =
solubility: 0.24
--
Molecule: Cc1ccc(OCc2ccc(CN3CCOCC3)cc2C)c(-c2csc(N[C@H]3CC[C@@H](C(=O)O)CC3)n2)c1
Unit Info: µg/mL
Modifier Sign: =
solubility: 36
--
Molecule: Cc1ccc(OCc2ccc(CN3CCOCC3)cc2C)c(-c2csc(N3C[C@H]4C[C@@H](C3)[C@H]4C(=O)O)n2)c1
Unit Info: µg/mL
Modifier Sign: >
solubility: 53
--
Molecule: Cc1cc(CN2CCS(=O)(=O)CC2)ccc1COc1ccc(C#N)cc1-c1csc(N2CCC(C(=O)O)C(C(F)(F)F)C2)n1 (centres unmarked)
Unit Info: µg/mL
Modifier Sign: =
solubility: 0.45
--
Molecule: CO[C@H]1CCN(C(=O)c2ccc(COc3ccc(C)cc3-c3csc(N4C[C@H]5CC[C@@H](C4)[C@H]5C(=O)O)n3)c(C)c2)C1
Unit Info: µg/mL
Modifier Sign: <
solubility: 0.1
--
Molecule: Cc1ccc(OCc2ccc(C(=O)N3CCCCC3)cc2C)c(-c2nc(N3C[C@H]4CC[C@@H](C3)[C@H]4C(=O)O)sc2F)c1
Unit Info: µg/mL
Modifier Sign: =
solubility: 97
--
Molecule: Cc1cc(CN2CCS(=O)(=O)CC2)ccc1COc1ccc(F)cc1-c1csc(N2CCC(C(=O)O)C(C(F)(F)F)C2)n1 (centres unmarked)
Unit Info: µg/mL
Modifier Sign: =
solubility: 0.3
--
Molecule: Cc1cc(C(=O)N2CCCCC2)ccc1COc1ccc(F)cc1-c1csc(N2C3CCC2CC(C(=O)O)C3)n1 (centres unmarked)
Unit Info: µg/mL
Modifier Sign: =
solubility: 0.45
--
Molecule: Cc1cc(CN2CCC(C(=O)N(C)C)CC2)ccc1COc1c(C)cccc1-c1csc(N2CCC(C(=O)O)CC2)n1
Unit Info: µg/mL
Modifier Sign: >
solubility: 68
--
Molecule: Cc1cc(CN2CCS(=O)(=O)CC2)ccc1COc1ccc(Cl)cc1-c1csc(N2CCC(C(=O)O)CC2)n1
Unit Info: µg/mL
Modifier Sign: =
solubility: 0.2
--
Molecule: Cc1cccc(-c2csc(N3CCC(C(=O)O)CC3)n2)c1OCc1ccc(CN2CCOCC2)cc1C#N
Unit Info: µg/mL
Modifier Sign: >
solubility: 64
